# TARGET_OR_SYSTEM: Calmodulin-1 (Homo sapiens) (UniProt P0DP23)
# ASSAY_TEXT: calcium-bound CALM1 binders on microarrays, profiling panel, artefact control for SMM control-protein annotation, biochemical, small-molecule microarray, Cy5-labelled CALM1, plus calcium (AID 1112);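 also: score merges spot fluorescence with signal to noise from triplicate slides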
# MEASUREMENT_SETUP: Cy5-CALM1 binding fluorescence, higher = more signal
Form field: composite z-score (one value per entry).

{"MOLECULE": "CCCCc1cn(C[C@H](Cc2ccccc2)NC(=O)N[C@H](CO)CCc2oc(C(C)=O)c(C(=O)OC)c2C(=O)OC)nn1", "composite z-score": -0.693}
{"MOLECULE": "CCCCC(O)C1C=CC2C(=O)N(c3ccccc3)C(=O)C2N1Nc1ccccc1F (stereo not given)", "composite z-score": -0.124}
{"MOLECULE": "CC(C)(C)OC(=O)CC[C@@]1(C(=O)NCC(O)CO)N=C(c2ccc(OCCCO)cc2)O[C@@H]1c1ccccc1N=[N+]=[N-] (stereo not given in full)", "composite z-score": 0.414}
{"MOLECULE": "COC(=O)[C@@]1(Cc2ccc(OC)cc2)[C@H]2c3cc(C(=O)N4CCCC4)n(Cc4ccc(OC)c(OC)c4)c3C[C@H]2CN1C(=O)c1ccccc1", "composite z-score": 0.811}
{"MOLECULE": "C=CCOC(=O)[C@H]1[C@@H]2C(=O)O[C@@H](c3ccccc3)[C@@H](c3ccccc3)N2[C@@H](c2ccc(OCCOC(=O)[C@@H]3C[C@@H]4C(=O)N5CCC[C@H]5C(=O)N4[C@@H]3c3cccc(OCCO)c3)cc2)[C@]12C(=O)Nc1ccccc12", "composite z-score": 0.0319}
{"MOLECULE": "COC(=O)c1c(CC[C@@H](CO)NC(=O)N[C@H](Cn2cc(Cc3ccccc3)nn2)C(C)C)oc(C(C)=O)c1C(=O)OC", "composite z-score": -0.573}
{"MOLECULE": "CCOC(=O)C1=CCC(c2ccc(C)cc2)N(S(=O)(=O)c2ccc(C)cc2)C1 (stereo not given)", "composite z-score": 0.172}
{"MOLECULE": "CC1CC/C=C\\[C@H]2OC34C=CCN(C(C)(C)C)C(=O)[C@H]3N(CCCCCCO)C(=O)[C@@H]4C2C(=O)O1 (stereo not given in full)", "composite z-score": 0.725}
{"MOLECULE": "[N-]=[N+]=NCc1ccccc1C[C@]1(C(=O)O)N=C(c2ccc(OCCCO)cc2)O[C@H]1c1ccccc1N=[N+]=[N-]", "composite z-score": 0.0606}
{"MOLECULE": "CN1C(=O)C2C=CC(C(O)C3CC=CCC3)N(NC(=O)OC(C)(C)C)C2C1=O (stereo not given)", "composite z-score": 0.785}
{"MOLECULE": "C=CCN1C(=O)[C@]2(O[C@H](CCO)[C@@H]([Si](C)(C)c3ccc(OC)cc3)[C@@H]2C)c2cc(N3C(=O)c4cccc5cccc3c45)ccc21", "composite z-score": 0.124}
{"MOLECULE": "C=CCNC(=O)[C@@H]1[C@H]2C(=O)O[C@H](c3ccccc3)[C@H](c3ccccc3)N2[C@H](c2ccccc2OCCO)[C@@]12C(=O)N(C(=O)OCCOC)c1ccc(C#CCNC(N)=O)cc12", "composite z-score": 0.27}
{"MOLECULE": "O=C1C2C=CC(C(O)C3CCCCC3)N(Nc3ccc([N+](=O)[O-])cc3)C2C(=O)N1c1ccccc1 (stereo not given)", "composite z-score": 0.164}
{"MOLECULE": "O=C1O[C@H](c2ccccc2)[C@H](c2ccccc2)N2[C@H]1[C@@H](C(=O)O)[C@]1(C(=O)Nc3ccc(C#CC4=CCCCC4)cc31)[C@H]2c1ccccc1OCCO", "composite z-score": 0.179}
{"MOLECULE": "CC(CO)N1C(=O)[C@@H]2C3C(=O)OCCC/C=C\\[C@H]3OC23C=CCN(c2ccc4ccccc4c2)C(=O)[C@@H]13 (stereo not given in full)", "composite z-score": -0.0356}

###

# ASSAY_TEXT: PSAC antagonists in infected red cells, primary screen, cell-based, P. falciparum Indochina, OD700, 18 h (AID 1157)
# MEASUREMENT_SETUP: P. falciparum Indochina infected erythrocytes, osmotic lysis OD700, 18 h; higher = more signal, called active from +8 up or from −8 down

{"SMILES_STRUCTURE": "C=C(CCCC)/C(=C/C[C@@H](OC(C)=O)c1ccccc1OCCO)c1cnc2ccccc2c1", "z-score": 1.39}
{"SMILES_STRUCTURE": "CN(C)CCCNC(=O)[C@@]1(C)c2ccccc2C(=O)N(Cc2cc(F)cc(C(F)(F)F)c2)[C@H]1c1ccc(CO)cc1", "z-score": -0.0617}
{"SMILES_STRUCTURE": "CCCCCCC#C[Si](O[C@H](c1ccccc1)c1cn([C@H](CO)Cc2ccccc2)nn1)(C(C)C)C(C)C", "z-score": 0.602}

###

Form field: z-score (one value per entry).
# ASSAY_TEXT: basal HepG2 mitochondrial membrane potential changes, profiling panel, cell-based, JC-1 fluorescence, 24 h, 100 nL compound (AID 1167); also: test concentration not given here
# MEASUREMENT_SETUP: higher = more signal

{"SMILES_STRUCTURE": "CN(C)CCCNC(=O)[C@@]1(C)c2ccccc2C(=O)N(Cc2cc(F)cc(C(F)(F)F)c2)[C@H]1c1ccc(CO)cc1", "z-score": 0.845}
{"SMILES_STRUCTURE": "CC(C)C[C@@H]1NC(=O)[C@H]2C[C@@H](C(=O)NCCCCCCN(C)C)[C@@H](c3ccc(O)cc3)N2C1=O", "z-score": -0.438}
{"SMILES_STRUCTURE": "O=C1O[C@H](c2ccccc2)[C@H](c2ccccc2)N2[C@H]1[C@@H](C(=O)Nc1nc3ccccc3s1)[C@]1(C(=O)Nc3ccc(C#CC4(O)CCCCCC4)cc31)[C@H]2c1ccc(OCCO)cc1", "z-score": -3.77}

###

Form field: composite z-score (one value per entry).
# ASSAY_TEXT: small-molecule binders of probe aNOTCH2, primary screen, biochemical, small-molecule microarray, 635/667 nm fluorescence (AID 1121);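 also: score merges feature fluorescence read at 667 nm with its signal to noise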
# MEASUREMENT_SETUP: higher = more signal
PROPERTY_MEASURED: composite z-score

{"COMPOUND": "C=CCNC(=O)[C@H]1[C@@H]2C(=O)O[C@@H](c3ccccc3)[C@@H](c3ccccc3)N2[C@@H](c2ccccc2OCCO)[C@]12C(=O)Nc1ccc(C#CC3=CCCCC3)cc12", "PROPERTY_MEASURED": "composite z-score", "READOUT_VALUE": -0.148}
{"COMPOUND": "O=C1OCCC/C=C\\[C@H]2OC34C=CCN(Cn5nnc6ccccc65)C(=O)[C@H]3N(CCO)C(=O)[C@@H]4C12 (some centres undefined)", "PROPERTY_MEASURED": "composite z-score", "READOUT_VALUE": -0.0073}
{"COMPOUND": "O=C(NCc1ccc(F)cc1)[C@H]1C[C@H]2C(=O)N[C@@H](Cc3ccccc3)C(=O)N2[C@H]1c1ccc(O)cc1", "PROPERTY_MEASURED": "composite z-score", "READOUT_VALUE": -0.159}
{"COMPOUND": "C=CC[C@@]1(C(=O)NCc2ccccc2)N=C(c2ccc(OCCCO)cc2)O[C@@H]1c1ccccc1N=[N+]=[N-]", "PROPERTY_MEASURED": "composite z-score", "READOUT_VALUE": 0.0186}

###

# ASSAY_TEXT: small-molecule binders of probe aNOTCH2, primary screen, biochemical, small-molecule microarray, 635/667 nm fluorescence (AID 1121);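 also: score merges feature fluorescence read at 667 nm with its signal to noise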
# MEASUREMENT_SETUP: higher = more signal
Kind request: treat -0.08 as inclusive, so composite z-score at -0.08 or higher is Criterion met, anything lower is Criterion not met.

{"COMPOUND": "COc1ccc(C(=O)Nc2ccc(CN3C(=O)[C@@]4(O[C@@H](CCO)[C@H]([Si](C)(C)c5ccc(OC)cc5)[C@H]4C)c4ccccc43)cc2)cc1", "CLASS_NAME": "Criterion not met"}
{"COMPOUND": "COCCOC(=O)N1C(=O)[C@@]2(c3cc(C#CCCO)ccc31)[C@H](C(=O)N1CCc3cc(OC)c(OC)cc3C1)[C@H]1C(=O)O[C@H](c3ccccc3)[C@H](c3ccccc3)N1[C@@H]2c1ccc(O)cc1", "CLASS_NAME": "Criterion not met"}
{"COMPOUND": "O=C(O)[C@@]1(CCS(=O)(=O)c2ccccc2)COC(c2ccc(OCCCO)cc2)=N1", "CLASS_NAME": "Criterion not met"}
{"COMPOUND": "C=C(C)C1C(=C)CN([C@H](CO)c2ccccc2)C1=O (some centres not stated)", "CLASS_NAME": "Criterion not met"}
{"COMPOUND": "COCCOC(=O)N1C(=O)[C@@]2(c3cc(C#CC4=CCCCC4)ccc31)[C@H](C(=O)Nc1nc3ccccc3s1)[C@H]1C(=O)O[C@H](c3ccccc3)[C@H](c3ccccc3)N1[C@@H]2c1ccccc1OCCO", "CLASS_NAME": "Criterion met"}
{"COMPOUND": "O=C1OCCC/C=C\\[C@H]2OC34C=CCN(CCN5CCOCC5)C(=O)[C@H]3N(CCCO)C(=O)[C@@H]4C12 (some centres not stated)", "CLASS_NAME": "Criterion not met"}
{"COMPOUND": "O=C1C2C=CC(C(O)C(c3ccccc3)c3ccccc3)N(n3cnnc3)C2C(=O)N1Cc1ccccc1 (configuration not stated)", "CLASS_NAME": "Criterion met"}

# credit: PubChem BioAssay
